EXPERIMENTAL SYSTEM: T1, human cyclophilin A (human, UniProt P62937 1-165)
T1 construct: also called CypA; peptidyl prolyl isomerase cyclophilin A; source: recombinant, highly pure; production and purification described previously [14]
T1 sequence (P62937 whole entry): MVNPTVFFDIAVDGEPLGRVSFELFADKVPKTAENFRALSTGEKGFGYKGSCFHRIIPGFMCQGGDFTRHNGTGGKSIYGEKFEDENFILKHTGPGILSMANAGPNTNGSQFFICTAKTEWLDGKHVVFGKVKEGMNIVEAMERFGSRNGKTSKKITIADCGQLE
EXPERIMENTAL PROTOCOL: SPR
CONDITIONS: both partners purified
READOUT TYPE: pKd
pKd here: minus log base 10 of the concentration, concentration in moles per litre.

Input line: Entry GCRHSRIGVTRQRRAR (HIV-1 Vpr residues 75-90; source: synthetic peptide) [Vpr^75-90] needs its pKd filled in; supply it.
Output line: 6.55

Input line: Entry GCRHSAIGVTRQRRAR (source: synthetic peptide) [Vpr^75-90 (R80A)] needs its pKd filled in; supply it.
Output line: 5.12
